Assay: protease stability score; higher = more stable; yeast display proteolysis, trypsin and chymotrypsin;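 further: log10 excess protease needed over predicted unfolded state with 0 meaning unfolded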
Lab note: anything with protease stability score at or over 0.6 counts as class 1; the rest go in class 0.

# Residues, Class
records = [
    ("DHEDMEKLAKDLNKAIEQGDPDRMRDMADENVDAKIGDKVFHGDENVRKMIKSIRDHADHLRVKDWRVKGEKIVIDVHVNHNGKSAKLDLKAQAHNGTFTTLKIDPQFQRSMES", "class 0"),
    ("DETNKEQFDRLLKHQKTGNPQEVVKNADPNVKMRIGNKTWHGRENINQDVERRRRKMRIDINVKSVDSHGEELRIDARVQYNINGKPLEDDVVIIAEVHNGKFKHIEVRIPERMQKKLER", "class 1"),
    ("DEKTVKEVVDKWIKALENNDEEKLQKMLKPNGEAHYADTTYKGKDQIVKYVVEFMRRGVELQVKEQEVKGGRAEYQVDATLGGDTVTLRVVIYVKDGVVDKVEFRDDEKVQKMMKKG", "class 0"),
    ("DEELYKLMEQVIKAWEENDETQLKRLADPNVKVSIGDKRVHGRDQMAEDAKRRKKQLRFNIDIKSYSVHNGRVNARATVHNDVNGQPREDTVNIQMEWSNGQLTNFNMRMDEDFLRKIRS", "class 1"),
    ("DEHANETVKRILRDIRHNNPHEIRKNMDPNAKVVIGDKTIHGREEAARQLKREMHEIRVEVKHIDMKVHDGRVNVNFDVVLDSNGNPQRQSYRMVVRVHNGTVHYLSKSDTR", "class 0"),
    ("DDEHANSMADQLQKAFETGDEDQIRRLMDKDVSINYGDKRIKGSRELAHWVATLRRQVDSIEYKSIHVKGDKVDIDVVVNVNGRNARFTLVARFSNGKFKELRVDPENMKRLKS", "class 1"),
    ("DEHDTEVAERALNDLKTGDPDKVTEMADKHVKYVVGEKRIQGRETYAKTVEKERDEIRVDWSVHNIQVHNGKLDVSAEFRFTVNGQPNSDSARWEFTLRNGKIQEVVMKVSDRFLKQMRS", "class 0"),
    ("DENHLKEVAEEYNKVLNNGDPDKHVEQVDKDVDVKVGDKTYHGREDDKKWMEHFVERVDHLEVKRVEVRGDKVRIDMVVNVNGDNVKMQVNINLHNGRVQEVSVNPDQLEKFKQ", "class 0"),
    ("EEDKLEHMTKLMTQNDEDRWEELADKNVRIEVGDYRVNGREQASSYLKLLKDQVDDYTVNHIHYQGDKIVANVQASVNGRRFRFQIRITVHNGRLKSMMVKVTDEHFKHVLKNIVG", "class 1"),
    ("DKEMASVVERWLDALQRNDPDQANNNADKDATFDVGDKKVKGRDTLKKLVEDLRREMRFNITSMSITVHGDKVVVTYRVSMQHDGQPMQHRYFLHAQDKNGHIHNLHVQKSD", "class 0"),
    ("DDSVKRLIKNLLKAWEHGDEHRARELMDEDARVTYGDQQVTGREEVARHHATRQKEIRYSIENMDVKVQGNHVEIHVEQQQTHNGEPKQFRYTMDVEARNGKIKRFEIQERR", "class 0"),
    ("DEQLNKHFVRLMQNNDFEELVRNADKDVRVRIGNKEYQGREEANTALKTFHKQVDKLTIRSYDYHNGSAKIDLEVRFNGQKFRFVVTARLHNGKMKSMRINFTNPEDQKQLDRDMS", "class 1"),
    ("DEQDLNSVKENLKAIETNNPKRVKELLDKDARAQYGDKEVHGRDEIADQQRKEREDIDIRIDWKRMNIDNGRIHMEFEVQYNFNGKPLTNKVTMRNEAHNGSIKAMFWQLSEDQQRELDS", "class 0"),
    ("DDRNNHRAKTFLTALNHNDPDQMERMVDENAQVQVGDKSYRGREDMKRWLKELIDSIRLEVHVHSLTQHNGVAVADIEETRESNGDPEEDSFTLYIQVHNGQAKRLEESKKS", "class 0"),
    ("DQEEAEKVMKQWMEAVQKGDEDTVRKLYDPNVEWINADTKEQDVEQFRKAIKKAKDKGVEFQVRKAKVEGDRVQMHYDVRIGNETVTFTVEMDVQGGKVEWLRVKVDEKARKALTKG", "class 1"),
    ("EEDVVEQLKDWYRAVNSGDEERLTQLMDPNAKAEVGDKRVHGMDEYARQQRTRNEKLRFQINSIEIRAKGNHVSVNVDANYHFDGQPRRDTWHIRMQFHNGRLKTLSVTMDPTLLREMEK", "class 1"),
    ("DEEADKRITEQLKQEQEGDKDKVKEQIDPNARIKVGDKTIHGMDEYVRMVHRTRREQRRRIRVVSVEVRGNTAKVDADRHIDVNGRPVRYRIEFHVEFHNGKVTDIHVHTDQEQKKKQHG", "class 1"),
    ("DEDRAKSFMQAVVDNDPDKILKMMDENVRIEYGNKEIHGHEDLRKFWDKLKDQVDHYQVDRYSIHNGTVNVDAQMVVNGVRVRFTIVAELRNGKVTSVKYRVTNPRQERQLDELWG", "class 1"),
    ("DERDADKVRQLYENEQHGDEHKVMQLVDKDVRFQYGDHEVQGREQQKKLVKERQDKARFELKSVDARDHNGRVRVDVRWVAEVNGRPHEDTIEVVVEIHNGKVKHVEFRVDPDHWTEVMQ", "class 0"),
    ("DESEQASEVAHEMRHLYRKNDEDRFRELMDENVRARVGDKEYHGREDVLRMFQHEMRTADHMDVQVNDFRKEGDSIIIHADLKYVSNGNDRTRRLVFVLEVNGDTITLLQQQDQ", "class 0"),
    ("DDEAQKLAEDYLTALQNNNPDKVIELLDPNARAEYGDKTYHGREQIHHFLRQFHKQARLQFTSYDVEVKNGQARLHMRVQVNHNGEPSQYEASIRISVHNGRMKEVQLQWSN", "class 1"),
    ("DEEDEQKIAKDFVRALERGDEDRVMELADPNVRIVIGDKRYEGREELKKLVRTFKKRADHAEVHSIDIRNGTVIVDYVIHHNGRNSQQYLYVSFNNGRIKSMRVQDG", "class 1"),
]

All figures here come from the NTF2 design screens of Basanta et al. (2020).
